The measured values listed here are drawn from the supplement of paper PMC10567573.

B1: LCOR (parent)
chain: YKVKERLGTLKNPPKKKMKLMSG

- Variants of: B1
- test details: protein stability index of a GFP-peptide fusion (GPS, HEK-293T) (PSI 1-6); higher = more stable;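 note: lentivirally expressed fusions sorted by FACS into six bins by GFP to DsRed ratio, PSI derived from sequencing read proportions per bin multiplied by bin number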
- study conditions: c terminus: native
measured endpoint: protein stability index
In your answer, state the number alone without any accompanying words.

Problem: Determine from records and report protein stability index for `R6L`
Solution: 1.84

Problem: Determine from records and report protein stability index for `K2Q`
Solution: 1.31

Problem: Determine from records and report protein stability index for `K11A`
Solution: 3.29

Problem: Determine from records and report protein stability index for `S22D`
Solution: 3.1
